Method: CCTE_Shafer_MEA_acute_synchrony_index: CCTE's Neural Acute Assay for Synchrony, Shafer Lab (AID 2284027);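 further: network synchrony index of spontaneous spiking in primary rat cortical neurons on MEAs; fitted for loss of signal so actives lower synchrony relative to DMSO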
Activity calls are given as the source filed them. How the source made its calls: active means hit-call score of the fitted dose curve at least 0.9, where 1 is the maximum; inactive means score below 0.9.
The reply should name one outcome from active, inactive

Use these answered entries as a reference point.
Molecule	Category
CN/C(=N\[N+](=O)[O-])NCc1cnc(Cl)s1	inactive
C=C(C)CN(CC)c1c([N+](=O)[O-])cc(C(F)(F)F)cc1[N+](=O)[O-]	inactive
CC1(C)C(C(=O)OC(C#N)c2cccc(Oc3ccccc3)c2)C1(C)C (stereo not drawn)	active
COCC(=O)N(c1c(C)cccc1C)C(C)C(=O)OC (stereo not drawn)	inactive

stdin: Hi, sorry to bother you, what did the test record for `O=C(Nc1ccccc1-c1ccc(Cl)cc1)c1cccnc1Cl` ?
stdout: active

stdin: Cool, now `CC(C)N1C(=O)N(c2ccccc2)CSC1=NC(C)(C)C`
stdout: active

stdin: Here is the next molecule: CC(C)C1(C)N=C(c2ncccc2C(=O)O)NC1=O (stereo not drawn)
stdout: inactive

stdin: Same lookup for `Clc1nc(Cl)nc(Nc2ccccc2Cl)n1` , please.
stdout: inactive

----------
System Tested: rat CYP3A2, Cyp3a2 (gene 266682)
Method: NVS_ADME_rCYP3A2: NovaScreen (NVS) CYP450-related Enzyme Activity (ADME) Assay for rat CYP3A2 (AID 2283128)
The source made the active and inactive calls. Rule for the calls: active = hit-call score of the fitted dose curve at least 0.9, where 1 is the maximum; inconclusive = response in the unintended direction; inactive = score below 0.9.
AC50 values by entry

Sample answers from the record:
Molecule	Reported Value
C=CCOC(=O)C(C)(C)OC(=O)c1cc(-n2c(=O)cc(C(F)(F)F)n(C)c2=O)ccc1Cl	407 nM (active)
COC(=O)c1c(C(F)F)nc(C(F)(F)F)c(C2=NCCS2)c1CC(C)C	5420 nM (active)
CCCCC(O)(Cn1cncn1)c1ccc(Cl)cc1Cl (stereo not given)	1600 nM (active)
Cc1ccc(N=CN(C)C=Nc2ccc(C)cc2C)c(C)c1	1230 nM (active)

Turning now to a further record.
stdin: Query AC50 on rat CYP3A2, Cyp3a2 (gene 266682) for CC1(C)CCC(=Cc2ccc(Cl)cc2)C1(O)Cn1cncn1 (stereo not given)
stdout: 225 nM (active)

----------
Read-out: sulfotransferase (SULT2A), SULT2A1 (gene 6822)
Method: CLD_SULT2A_48hr: CellzDirect (CLD) Gene Expression Assay for sulfotransferase (SULT2A) at 48 hours (AID 2283710);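 further: hits raise SULT2A1 transcript above the 0.2% DMSO vehicle baseline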
Results filed as inconclusive are left out. Calls of active or inactive are those of the source. The calls were made as follows: active = hit-call score of the fitted dose curve at least 0.9, where 1 is the maximum; inconclusive = response in the unintended direction; inactive = score below 0.9.
Parameter call: string, one of active, inactive

These solved cases illustrate the format of a correct answer.
Molecule	Category
Cc1c(COC(=O)[C@@H]2[C@H](/C=C(\Cl)C(F)(F)F)C2(C)C)cccc1-c1ccccc1	active
COP(=S)(OC)SCn1nnc2ccccc2c1=O	inactive
COP(=O)(OC)O/C(C)=C/C(=O)N(C)C	inactive
COP(=S)(OC)Oc1ccc([N+](=O)[O-])c(C)c1	inactive
CC(C)Oc1cccc(NC(=O)c2ccccc2C(F)(F)F)c1	inactive

stdin: Record lookup: outcome of this test for `CS(=O)(=O)c1cc(C(F)(F)F)ccc1C(=O)c1cnoc1C1CC1` ?
stdout: inactive

----------
System: rat CYP3A1, gene 25642
Method: NVS_ADME_rCYP3A1: NovaScreen (NVS) CYP450-related Enzyme Activity (ADME) Assay for rat CYP3A1 (AID 2283126)
Calls of active or inactive are those of the source. The calls were made as follows: active = hit-call score of the fitted dose curve at least 0.9, where 1 is the maximum; inconclusive = response in the unintended direction; inactive = score below 0.9.
Measure Name: AC50

Example compounds with recorded AC50:
Compound	System Tested	AC50
COc1cc(OC)nc(NC(=O)NS(=O)(=O)c2ncccc2OCC(F)(F)F)n1	rat CYP3A1, gene 25642	5.87 µM (active)
Cc1ccc(N=CN(C)C=Nc2ccc(C)cc2C)c(C)c1	rat CYP3A1, gene 25642	4.8 µM (active)
COCC(=O)N(c1c(C)cccc1C)C(C)C(=O)OC (configuration not stated)	rat CYP3A1, gene 25642	4.46 µM (active)

stdin: Any idea what AC50 came out for `CC(C)NC(=O)N1CC(=O)N(c2cc(Cl)cc(Cl)c2)C1=O` on rat CYP3A1, gene 25642?
stdout: 2.27 µM (active)

stdin: Please answer likewise for `COC(=O)c1c(C(F)F)nc(C(F)(F)F)c(C2=NCCS2)c1CC(C)C`
stdout: 2.32 µM (active)

stdin: Thanks! And `CO/N=C(/C1=NOCCO1)c1ccccc1Oc1ncnc(Oc2ccccc2Cl)c1F` ?
stdout: 0.705 µM (active)

stdin: One more compound: `COP(=S)(OC)Oc1ccc([N+](=O)[O-])c(C)c1`
stdout: 8.22 µM (active)

stdin: What about this compound? CC(C)(C)C(=O)C(Oc1ccc(Cl)cc1)n1cncn1 (configuration not stated)
stdout: 8.49 µM (active)

stdin: Now the compound `COP(=S)(OC)SCn1nnc2ccccc2c1=O`
stdout: 3.02 µM (active)

stdin: For CCN(CC)C(=O)C(C)Oc1cccc2ccccc12 (configuration not stated) then?
stdout: 4.43 µM (active)

stdin: Now give it for `CCOP(=O)(OCC)Oc1nc(Cl)c(Cl)cc1Cl` too.
stdout: 7.93 µM (active)

FYI, the data here is from PubChem BioAssay (EPA / NIEHS).
